- testSummary: Permeability from apical to basolateral side of Caco-2 cells
- Format: ADME, cell-based
- experimentalContext: human, read-out: permeability
resultType: Papp A→B (×10⁻⁶ cm/s)

> print(dat)
                                  smilesstr  resulttype  quantitativeresult
1  O=C(O)COc1ccc(Br)cc1C(=O)c1cnn(-c2ccccc2)c1    Papp A→B                 8.7

====

- testSummary: Aqueous solubility in PBS at pH 7.4
- Type: physicochemical
resultType: solubility (µM)

> print(dat)
                                  smilesstr  resulttype  quantitativeresult
1  O=C(O)COc1ccc(Br)cc1C(=O)c1cnn(-c2ccccc2)c1  solubility                 200

====

- testSummary: Aqueous solubility at pH 1
- Type: physicochemical
- experimentalContext: buffer
resultType: solubility (µM)

> print(dat)
                                  smilesstr  resulttype  unitdescriptor  quantitativeresult
1  O=C(O)COc1ccc(Br)cc1C(=O)c1cnn(-c2ccccc2)c1  solubility              µM                  80

====

- testSummary: Half life in rat
- Format: ADME, organism-based
- experimentalContext: in vivo
resultType: half-life

> print(dat)
                                  smilesstr  resulttype  result
1  O=C(O)COc1ccc(Br)cc1C(=O)c1cnn(-c2ccccc2)c1   half-life   2.7 h

====

The entries below come with measured pIC50 values attached.
- assayedTarget: Prostaglandin D2 receptor 2 (Homo sapiens, UniProt Q9Y5Y4)
- Sequence (Q9Y5Y4 whole entry): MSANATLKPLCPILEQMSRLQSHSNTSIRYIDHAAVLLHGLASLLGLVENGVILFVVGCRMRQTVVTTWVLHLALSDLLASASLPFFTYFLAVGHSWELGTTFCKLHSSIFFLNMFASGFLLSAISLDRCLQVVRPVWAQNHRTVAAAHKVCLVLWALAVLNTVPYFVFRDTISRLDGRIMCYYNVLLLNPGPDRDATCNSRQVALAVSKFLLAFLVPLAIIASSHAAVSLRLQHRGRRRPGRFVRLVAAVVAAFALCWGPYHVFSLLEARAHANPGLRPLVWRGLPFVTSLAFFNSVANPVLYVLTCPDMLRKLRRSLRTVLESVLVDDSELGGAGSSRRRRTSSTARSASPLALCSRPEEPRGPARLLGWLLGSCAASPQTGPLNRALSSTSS
- testSummary: Antagonist activity against CRTH2 receptor measured as inhibition of PGD2-induced beta-arrestin translocation in HEK293 cells by BRET assay
- Assay type: functional, cell-based
pIC50: −log10 of the molar value.
resultType: pIC50

> print(dat)
                                   smilesstr  quantitativeresult
 1   O=C(O)COc1ccccc1C(=O)c1cnn(-c2ccccc2)c1                5.27
 2  O=C(O)COc1ccc(-c2cc(F)cc(F)c2)cc1C(=O)c1cnn(-c2ccccc2)c1                6.83
 3  O=C(O)COc1ccc(Cl)cc1C(=O)c1cnn(-c2ccccc2)c1                6.73
 4  O=C(O)COc1ccc(Br)cc1C(=O)c1cnn(-c2ccc(Cl)cc2)c1                7.77
 5                       O=Cc1ccccc1OCC(=O)O                4.30
 6  O=C(O)COc1ccccc1/C=N/NC(=O)COc1ccc(Cl)cc1Cl                5.20
 7  O=C(O)COc1ccc(Br)cc1C(=O)c1cnn(-c2ccccc2Br)c1                7.92
 8  Cc1ccc(OCC(=O)O)c(C(=O)c2cnn(-c3ccccc3)c2)c1                6.23
 9        O=C(O)COc1ccc(Br)cc1/C=N/Nc1ccccn1                5.46
10              CC(C)(C)c1cc(Br)ccc1OCC(=O)O                6.37
11  O=C(O)COc1ccccc1/C=N/NC(=O)Cn1cnc2ccccc21                4.09
